From: the supplement of paper PMC10949913

- System: CU-ACC2
- assay: AC50 viability; higher = less potent
- particulars: 48 h
reported-endpoint: log10 AC50 viability (log10 of the value in µM)
Answers are given as log10 of AC50 viability in µM.

Q) Please give the measured log10 AC50 viability for this molecule: "CC(C)c1cnn2c(NCc3ccccc3)cc(N[C@@H](CO)[C@H](O)CO)nc12"
A) -0.53

Q) Please give the measured log10 AC50 viability for this molecule: "C[C@@]12C(=O)OC(=O)[C@]1(C)[C@H]1CC[C@@H]2O1"
A) 1.02

Q) Please give the measured log10 AC50 viability for this molecule: "CCC1=C2C=C(OC(=O)N3CCC(CC3)N4CCCCC4)C=CC2=NC\5=C1CN6C(=O)\C7=C(/C=C56)[C@@](O)(CC)C(=O)OC7"
A) 0.47

Q) Please give the measured log10 AC50 viability for this molecule: "Cc1cc(-c2ccc(CC(=O)Nc3ccc(-c4cccnc4)cc3)cc2)ccn1"
A) 1.37

Q) Please give the measured log10 AC50 viability for this molecule: "CN1C(=O)c2sccc2N(C)c2nc(Nc3ccc([S+](N)(=O)[O-])cc3)ncc21"
A) 1.17

Q) Please give the measured log10 AC50 viability for this molecule: "COc1cc2c(cc1OC(C)C)[C@H](c1ccc(Cl)cc1)N(c1ccc(N(C)C[C@H]3CC[C@H](N4CCN(C)C(=O)C4)CC3)cc1)C(=O)C2"
A) 1.32

Q) Please give the measured log10 AC50 viability for this molecule: COc1cc(-c2nn(C3CCC(N4CCN(C(C)=O)CC4)CC3)c3ncnc(N)c23)ccc1NC(=O)c1cc2ccccc2n1C (stereo not drawn)
A) 1.02

Q) Please give the measured log10 AC50 viability for this molecule: "Nc1ccccc1NC(=O)c1ccc(CNC(=O)OCc2cccnc2)cc1"
A) 1.17

---

Would you kindly list area under concentration-response curve for each of these molecules?
- Tested on: CU-ACC1
- assay: area under concentration-response curve (viability) (AUC (a.u.)); higher = less active
- particulars: 48 h
Quick one: just the number, no unit, thanks!

Q) Please give the measured area under concentration-response curve for this molecule: "CCCOc1ccc(CCc2nc3cc(-c4c(C)noc4C)ccc3n2CCN2CCOCC2)cc1"
A) 482

Q) Please give the measured area under concentration-response curve for this molecule: CCN1\C=C(C(O)=O)/C(=O)C2=C1C(=C(N3CCNC(C)C3)C(=C2)F)F (stereo not given)
A) 577

Q) Please give the measured area under concentration-response curve for this molecule: "NC(=O)c1nc(F)cnc1O"
A) 506

Q) Please give the measured area under concentration-response curve for this molecule: Nc1nc(N)c2nc(CNc3ccc(C(=O)NC(CCC(=O)O)C(=O)O)cc3)cnc2n1 (stereo not given)
A) 458

Q) Please give the measured area under concentration-response curve for this molecule: "Oc1cccc(-c2nc(N3CCOCC3)c3oc4ncccc4c3n2)c1"
A) 401

---

- Tested on: CU-ACC2
- assay: area under concentration-response curve (viability) (AUC (a.u.)); higher = less active
- particulars: 48 h
reported-endpoint: area under concentration-response curve
Quick one: just the number, no unit, thanks!

Q) Please give the measured area under concentration-response curve for this compound: "N[S+](=O)([O-])NCCNc1nonc1/C(=N/O)Nc1ccc(F)c(Br)c1"
A) 595

Q) Please give the measured area under concentration-response curve for this compound: "CNc1nc(-c2ccc3c(N)n[nH]c3c2)cc(N2C[C@@H](C(=O)NC3CCCCC3)CC[C@H]2C)n1"
A) 544

Q) Please give the measured area under concentration-response curve for this compound: "CC(=O)OCC(=O)[C@@]1(O)CC[C@H]2[C@@H]3CCC/4=C/C(=O)/C=C\[C@]4(C)[C@H]3[C@@H](O)C[C@]12C"
A) 471

Q) Please give the measured area under concentration-response curve for this compound: "COc1ccc(-n2nc(C(N)=O)c3c2C(=O)N(c2ccc(N4CCCCC4=O)cc2)CC3)cc1"
A) 374

Q) Please give the measured area under concentration-response curve for this compound: "CN1C(=O)/C(=C(NC2=CC=C(I)C=C2F)\C3=C1\N=C/N(C[C@@H](O)CO)C3=O)F"
A) 497

Q) Please give the measured area under concentration-response curve for this compound: CN1CCN(C)C(=O)C1C2=CC=C(N/C3=N/C(=C\N(C)C3=O)C4=C(C)C(=CC=C4)NC(=O)C5=CC6=C(CCCC6)S5)C=C2 (stereo not drawn)
A) 612

Q) Please give the measured area under concentration-response curve for this compound: "COc1ccc2c(C(=S)N(C)CC(=O)O)cccc2c1C(F)(F)F"
A) 535

Q) Please give the measured area under concentration-response curve for this compound: Cc1nc(NC(=O)N2CCCC2C(N)=O)sc1-c1ccnc(C(C)(C)C(F)(F)F)c1 (stereo not drawn)
A) 626

---

- Test system: CU-ACC2
- assay: AC50 viability; higher = less potent
- particulars: 48 h
reported-endpoint: AC50 viability (µM)
Use µM as the unit, but write only the number.

Q) For CU-ACC2, provide AC50 viability of "Cc1ccc2nc(NCCN)c3ncc(C)n3c2c1" please.
A) 10.5

Q) For CU-ACC2, provide AC50 viability of "COc1cc2c(NC3CCN(C(C)C)CC3)nc(C3CCCCC3)nc2cc1OCCCN1CCCC1" please.
A) 14.8

Q) For CU-ACC2, provide AC50 viability of "CC/1=C/C[C@]23O[C@@]2(C)CC[C@@H]4[C@H](OC(=O)C4=C)[C@@H]13" please.
A) 16.6

Q) For CU-ACC2, provide AC50 viability of "CN(C)C1CCN(C(=O)c2ccc(NC(=O)Nc3nc(N4CCOCC4)nc(N4CCOCC4)n3)cc2)CC1" please.
A) 1.86

Q) For CU-ACC2, provide AC50 viability of "C[C@@H]1CC[C@@]2(OC1)O[C@H]3C[C@H]4[C@@H]5C/C=C6/C[C@H](CC[C@]6(C)[C@H]5CC[C@]4(C)[C@H]3[C@@H]2C)O[C@@H]7O[C@H](CO)[C@@H](O[C@@H]8O[C@@H](C)[C@H](O)[C@@H](O)[C@H]8O)[C@H](O)[C@H]7O[C@@H]9O[C@@H](C)[C@H](O)[C@@H](O)[C@H]9O" please.
A) 7.42

Q) For CU-ACC2, provide AC50 viability of "Cc1cc(Nc2cc(NC(=O)c3c(Cl)cccc3Cl)ccn2)nc(N)n1" please.
A) 5.9

Q) For CU-ACC2, provide AC50 viability of "C=C1C[C@@H]2CC[C@@]34C[C@H]5O[C@H]6[C@@H](O3)[C@H]3O[C@H](CC[C@@H]3O[C@H]6[C@H]5O4)CC(=O)C[C@@H]3[C@@H](OC)[C@@H](C[C@H](O)CN)O[C@H]3C[C@H]3O[C@@H](CC[C@@H]1O2)C[C@@H](C)C3=C" please.
A) 3.4

Q) For CU-ACC2, provide AC50 viability of "C[C@@H](N)c1ccc(C(=O)Nc2ccnc3[nH]ccc23)cc1" please.
A) 2.63

Q) For CU-ACC2, provide AC50 viability of "Cc1cnc(Nc2ccc(F)cc2Cl)nc1-c1c[nH]c(C(=O)N[C@H](CO)c2cccc(Cl)c2)c1" please.
A) 18.6

Q) For CU-ACC2, provide AC50 viability of CCCNCC(O)COc1ccccc1C(=O)CCc1ccccc1 (configuration not stated) please.
A) 23.5

Q) For CU-ACC2, provide AC50 viability of "CN[S+](=O)([O-])c1ccc2c(c1)/C(=C/c1[nH]c3c(c1CCCN1CCN(C)CC1)CCCC3)C(=O)N2" please.
A) 16.6

Q) For CU-ACC2, provide AC50 viability of CC[C@@H]([C@H](C)O)N1\N=C/N(C1=O)C2=CC=C(C=C2)N3CCN(CC3)C4=CC=C(OCC5CO[C@@](C5)(C[N]6C=NC=N6)C7=C(F)C=C(F)C=C7)C=C4 (some centres not stated) please.
A) 7.42

Q) For CU-ACC2, provide AC50 viability of "FC1=CC2=C3[N](CCN(CC3=C1)C(=O)N4CCCCC4)C=C2C/5=C(C(=O)NC5=O)\C6=CN=C7C=CC=C[N]67" please.
A) 18.6

Q) For CU-ACC2, provide AC50 viability of C[N]1N=C(C)C2=C1OC(=C(/C#N)C2C3=CC=C(C=C3)C(F)(F)F)/N (configuration not stated) please.
A) 18.6

Q) For CU-ACC2, provide AC50 viability of "C=C1C(=O)O[C@@H]2[C@H]3O[C@]3(C)CC/C=C(\C)CC[C@@H]12" please.
A) 7.42

Q) For CU-ACC2, provide AC50 viability of "Cc1c(CN2CCN([S+](C)(=O)[O-])CC2)sc2c(N3CCOCC3)nc(-c3cnc(N)nc3)nc12" please.
A) 0.468

Q) For CU-ACC2, provide AC50 viability of "c1ccc(-c2ccc(CNc3nc(-c4ccccn4)nnc3-c3ccccc3)cc2)cc1" please.
A) 14.8

Q) For CU-ACC2, provide AC50 viability of "C=CC(=O)Nc1cccc(Nc2nc(Nc3ccc(NC4CN(CCF)C4)cc3OC)ncc2C(F)(F)F)c1" please.
A) 14.8

Q) For CU-ACC2, provide AC50 viability of "O=C(O)c1ccc2cc(-c3ccc(O)c(C45CC6CC(CC(C6)C4)C5)c3)ccc2c1" please.
A) 5.25

Q) For CU-ACC2, provide AC50 viability of "COc1ccc(CCN(C)CCCOc2ccc([S+](=O)([O-])c3c(C(C)C)c4ccccc4n3C)cc2)cc1OC" please.
A) 20.9

Q) For CU-ACC2, provide AC50 viability of "CCC[C@H](NC(=O)/C(C#N)=C/c1cccc(Br)n1)c1ccccc1" please.
A) 26.3

Q) For CU-ACC2, provide AC50 viability of "c1ccc2c(CCNc3ccc(Nc4ccncc4)cc3)c[nH]c2c1" please.
A) 10.5

Q) For CU-ACC2, provide AC50 viability of "NCCCCNCCCN" please.
A) 33.2

Q) For CU-ACC2, provide AC50 viability of "CC(=O)c1ccc2c(c1)c1cc(C(C)=O)ccc1n2CCNC(C)C" please.
A) 2.95

Q) For CU-ACC2, provide AC50 viability of "COc1ccc([S+](=O)([O-])N(CCO)c2ccccc2CN(C)C/C=C/c2ccc(Cl)cc2)cc1" please.
A) 23.5

Q) For CU-ACC2, provide AC50 viability of "COc1cc2nc(N3CCCN(C)CC3)nc(NC3CCN(Cc4ccccc4)CC3)c2cc1OC" please.
A) 8.33

Q) For CU-ACC2, provide AC50 viability of "CCc1cnn2c(NCc3ccc[n+]([O-])c3)cc(N3CCCC[C@H]3CCO)nc12" please.
A) 0.0059

Q) For CU-ACC2, provide AC50 viability of "NC1(C(=O)N[C@@H](CCO)c2ccc(Cl)cc2)CCN(c2ncnc3[nH]ccc23)CC1" please.
A) 18.6

Q) For CU-ACC2, provide AC50 viability of "O=C1Nc2cc(Br)ccc2/C1=C1/Nc2ccccc2/C1=N\O" please.
A) 18.6

Q) For CU-ACC2, provide AC50 viability of CNC1CCC(N(Cc2cccc(-c3ccncc3)c2)C(=O)c2sc3c(F)ccc(F)c3c2Cl)CC1 (configuration not stated) please.
A) 9.34

Q) For CU-ACC2, provide AC50 viability of "COC(=O)c1ccc2c(c1)NC(=O)/C2=C(\Nc1ccc(N(C)C(=O)CN2CCN(C)CC2)cc1)c1ccccc1" please.
A) 7.42

Q) For CU-ACC2, provide AC50 viability of "CC(C)C[C@H](NC(=O)[C@@H](NC(=O)c1cccc(-c2ccccc2)n1)[C@@H](C)O)B(O)O" please.
A) 0.0723
